# study-target: human GSK3α (Homo sapiens)
# Construct: Full length human GSK3α or GSK3B expressed as N-terminal GST fusion proteins; GST (N); purchased Carna Biosciences (Japan); host or cells: baculovirus host
# Sequence (P49840 whole entry, the tested form may be a part): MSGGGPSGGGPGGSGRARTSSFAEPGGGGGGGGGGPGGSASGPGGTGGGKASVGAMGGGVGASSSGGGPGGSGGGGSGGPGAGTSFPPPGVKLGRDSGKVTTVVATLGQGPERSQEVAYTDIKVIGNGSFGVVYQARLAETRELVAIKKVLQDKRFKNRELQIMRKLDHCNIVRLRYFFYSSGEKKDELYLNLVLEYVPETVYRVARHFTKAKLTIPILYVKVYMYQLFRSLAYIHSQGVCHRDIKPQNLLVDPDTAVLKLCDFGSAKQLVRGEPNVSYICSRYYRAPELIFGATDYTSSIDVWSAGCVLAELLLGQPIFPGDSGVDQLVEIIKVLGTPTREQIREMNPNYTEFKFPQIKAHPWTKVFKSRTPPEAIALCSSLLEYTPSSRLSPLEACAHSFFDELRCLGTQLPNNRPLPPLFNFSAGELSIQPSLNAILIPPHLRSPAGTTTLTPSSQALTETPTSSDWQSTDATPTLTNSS
# measurement-description: In vitro enzymatic activity assay, GSK3α
# Format: biochemical
# condition-parameters: 1.0 mM ATP, 1.0 μM peptide substrate, 120 min, 25° C, read-out: Enzyme GSK3α (IC50)
Would you kindly list pIC50 for each of these compounds?
One number for each entry, as −log10 of the molar value.

Past entries and their recorded results:
[[record]]
compound = "Nc1ncn(-c2c(Cl)cc(OC(F)(F)F)cc2Cl)c(=O)c1C(=O)Nc1cncc([C@@H]2CCCN2)c1"
value_observed = 7.81

[[record]]
compound = "Cc1cc(C(F)(F)F)cc(C)c1-n1cnc(N)c(C(=O)Nc2cncc(C3CCCCCN3)c2)c1=O (single isomer, unassigned)"
value_observed = 7.99


Value sought for every listed compound: pIC50.
1. CCOc1cc(Cl)c(-n2cnc(N)c(C(=O)Nc3cncc(C(C)N)c3)c2=O)c(Cl)c1 (single isomer, unassigned) [Example 142]
2. Nc1ncn(-c2c(Cl)cccc2Cl)c(=O)c1C(=O)Nc1cccc([C@@H]2COCCCN2)c1 (single isomer, unassigned)
3. CCc1cc(C)c(-n2cnc(N)c(C(=O)Nc3cncc([C@@H](C)N)c3)c2=O)c(C)c1 (single isomer, unassigned)
4. COc1cc(Cl)c(-n2cnc(N)c(C(=O)Nc3cncc([C@H]4CCC[C@H](C)N4)c3)c2=O)c(Cl)c1 (single isomer, unassigned) [Example 81]
5. Cc1cc(CS(C)(=O)=O)cc(C)c1-n1cnc(N)c(C(=O)Nc2cncc([C@H]3CCCCN3)c2)c1=O
6. CCNCc1cncc(NC(=O)c2c(N)ncn(-c3c(Cl)cc(OC)cc3Cl)c2=O)c1

Outgoing:
1: 8.01; 2: 7.80; 3: 7.97; 4: 8.23; 5: 8.03; 6: 8.11

Value sought for every listed compound: pIC50.
1. Nc1ncn(-c2c(Cl)cccc2Cl)c(=O)c1C(=O)Nc1cncc([C@H]2CCOCCN2)c1 (single isomer, unassigned)
2. Nc1ncn(-c2c(Cl)cc(F)cc2Cl)c(=O)c1C(=O)Nc1cncc([C@@H]2CCCN2)c1
3. COCc1cc(Cl)c(-n2cnc(N)c(C(=O)Nc3cncc(CNC(C)C)c3)c2=O)c(Cl)c1
4. CCNCc1cncc(NC(=O)c2c(N)ncn(-c3c(Cl)cc(OC(F)F)cc3Cl)c2=O)c1
5. COc1cc(Cl)c(-n2cnc(N)c(C(=O)Nc3cncc(C4CCC(C)N4)c3)c2=O)c(Cl)c1 (single isomer, unassigned) [Example 78]
6. NCc1cncc(NC(=O)c2c(N)ncn(-c3c(Cl)cc(C(F)(F)F)cc3Cl)c2=O)c1

Outgoing:
1. 8.14
2. 7.87
3. 7.93
4. 8.06
5. 7.94
6. 8.03

---

# study-target: GSK3B (Homo sapiens, UniProt P49841)
# Sequence (P49841 whole entry): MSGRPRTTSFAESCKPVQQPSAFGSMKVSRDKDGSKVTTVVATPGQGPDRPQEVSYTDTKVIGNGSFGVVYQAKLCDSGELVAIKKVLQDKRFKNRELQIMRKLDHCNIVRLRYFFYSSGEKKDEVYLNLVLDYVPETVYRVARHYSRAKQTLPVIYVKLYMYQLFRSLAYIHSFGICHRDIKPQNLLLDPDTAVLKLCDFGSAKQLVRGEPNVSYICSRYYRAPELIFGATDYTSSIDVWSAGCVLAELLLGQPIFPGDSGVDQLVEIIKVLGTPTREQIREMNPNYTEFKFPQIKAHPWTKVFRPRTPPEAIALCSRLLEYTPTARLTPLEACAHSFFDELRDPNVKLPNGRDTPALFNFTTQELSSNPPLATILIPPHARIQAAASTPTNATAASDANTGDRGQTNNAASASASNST
# measurement-description: NanoBRET cellular target engagement assay, Nanoluc-GSK3B in HEK293 cells
# Format: cell-based
# Design: expressed in transfected cells
# condition-parameters: NanoBRET GSK3β IC50, HEK293 cells, tracer K-8, 2 hours, 37° C
assay-readout: pIC50
Give bare numbers, as −log10 of the molar value.

[[record]]
compound = "CCC(N)c1cncc(NC(=O)c2c(N)ncn(-c3c(C)cc(COC)cc3C)c2=O)c1 (single isomer, unassigned)"
value_observed = 6.39

[[record]]
compound = "CNC(C)c1cncc(NC(=O)c2c(N)ncn(-c3c(Cl)cc(OC)cc3Cl)c2=O)c1 (single isomer, unassigned) [Example 18]"
value_observed = 6.37


Value sought for every listed compound: pIC50.
1. Nc1ncn(-c2c(O)cccc2Cl)c(=O)c1C(=O)Nc1cncc([C@@H]2CCCCN2)c1
2. CCNCc1cncc(NC(=O)c2c(N)ncn(-c3c(C)cc(CC(F)F)cc3C)c2=O)c1
3. CCOCC(N)c1cncc(NC(=O)c2c(N)ncn(-c3c(Cl)cc(OCC)cc3Cl)c2=O)c1 (single isomer, unassigned)

Outgoing:
4.60
6.02
6.21

---

Would you kindly list pIC50 for each of these compounds?
# study-target: GSK3B (Homo sapiens)
# measurement-description: NanoBRET cellular target engagement assay, Nanoluc-GSK3B in HEK293 cells
# Assay type: cell-based
# Parameters: expressed in transfected cells
# condition-parameters: NanoBRET GSK3β IC50, HEK293 cells, tracer K-8, 2 hours, 37° C
Numbers only, as −log10 of the molar value.

[[record]]
compound = "Cc1cc(C(F)CF)cc(C)c1-n1cnc(N)c(C(=O)Nc2cncc(C3CCCCCN3)c2)c1=O (single isomer, unassigned) [Example 115]"
value_observed = 6.55

[[record]]
compound = "COCc1cc(C)c(-n2cnc(N)c(C(=O)Nc3cncc(C4CCCCCN4)c3)c2=O)c(C)c1 (single isomer, unassigned)"
value_observed = 6.53

[[record]]
compound = "CCC[C@@H](N)c1cncc(NC(=O)c2c(N)ncn(-c3c(C)cc(OCC)cc3C)c2=O)c1"
value_observed = 6.42


Value sought for every listed compound: pIC50.
1. CCOc1c(CN)cccc1NC(=O)c1c(N)ncn(-c2c(Cl)cccc2Cl)c1=O
2. Cc1cc(C(F)F)cc(C)c1-n1cnc(N)c(C(=O)Nc2cncc(C3CCCC(C)N3)c2)c1=O (single isomer, unassigned)

Outgoing:
[6.59, 6.36]

---

# study-target: GSK3A (Homo sapiens, UniProt P49840)
# measurement-description: NanoBRET cellular target engagement assay, Nanoluc-GSK3A in HEK293 cells
# condition-parameters: NanoBRET GSK3α IC50, HEK293 cells, tracer K-8, 2 hours, 37° C
assay-readout: pIC50
Give bare numbers, as −log10 of the molar value.

Past entries and their recorded results:
[[record]]
compound = "CCOc1cc(C)c(-n2cnc(N)c(C(=O)Nc3cncc(C4CCCC(C)N4)c3)c2=O)c(C)c1 (single isomer, unassigned)"
assay_readout = "pIC50"
value_observed = 8.17

[[record]]
compound = "CO[C@H](C)c1cc(C)c(-n2cnc(N)c(C(=O)Nc3cncc([C@@H](C)N)c3)c2=O)c(C)c1 (single isomer, unassigned) [Example 175]"
assay_readout = "pIC50"
value_observed = 8.09

[[record]]
compound = "CCOc1c(CN)cccc1NC(=O)c1c(N)ncn(-c2c(Cl)cccc2Cl)c1=O"
assay_readout = "pIC50"
value_observed = 8.09


Value sought for every listed compound: pIC50.
1. COc1cc(C)c(-n2cnc(N)c(C(=O)Nc3cccc(C4(N)CCC4)c3)c2=O)c(Cl)c1
2. CCOc1cc(C)c(-n2cnc(N)c(C(=O)Nc3cncc(C4CCC(C)N4)c3)c2=O)c(C)c1 (single isomer, unassigned) [Example 93]
3. COC[C@](C)(N)c1cncc(NC(=O)c2c(N)ncn(-c3c(Cl)cc(OC)cc3Cl)c2=O)c1 (single isomer, unassigned)

Outgoing:
1: 8.44; 2: 8.03; 3: 8.30

Value sought for every listed compound: pIC50.
1. [2H]C([2H])([2H])NC(C)c1cncc(NC(=O)c2c(N)ncn(-c3c(C)cc(C(F)(F)F)cc3Cl)c2=O)c1 (single isomer, unassigned)
2. Nc1ncn(-c2c(Cl)cc(N3CCC3)cc2Cl)c(=O)c1C(=O)Nc1cncc([C@@H]2CCCCN2)c1
3. Cc1cc(OC(F)(F)F)cc(C)c1-n1cnc(N)c(C(=O)Nc2cncc([C@H]3CCCCN3)c2)c1=O

Outgoing:
[8.72, 8.23, 8.43]

---

# study-target: human GSK3α (Homo sapiens)
# Construct: Full length human GSK3α or GSK3B expressed as N-terminal GST fusion proteins; GST (N); purchased Carna Biosciences (Japan); host or cells: baculovirus host
# measurement-description: In vitro enzymatic activity assay, GSK3α
# Format: biochemical
# condition-parameters: 1.0 mM ATP, 1.0 μM peptide substrate, 120 min, 25° C, read-out: Enzyme GSK3α (IC50)
Would you kindly list pIC50 for each of these molecules?
Give bare numbers, as −log10 of the molar value.

[[record]]
molecule = "[2H]C([2H])([2H])NC(C)c1cncc(NC(=O)c2c(N)ncn(-c3c(C)cc(OC)cc3Cl)c2=O)c1 (single isomer, unassigned) [Example 4]"
assay_readout = "pIC50"
value_observed = 8.43

[[record]]
molecule = "CNC(C)c1cncc(NC(=O)c2c(N)ncn(-c3c(Cl)cc(OC)cc3Cl)c2=O)c1 (single isomer, unassigned) [Example 18]"
assay_readout = "pIC50"
value_observed = 7.92

[[record]]
molecule = "CC1CCC(c2cccc(NC(=O)c3c(N)ncn(-c4c(Cl)cccc4Cl)c3=O)c2)N1 (single isomer, unassigned) [Example 180]"
assay_readout = "pIC50"
value_observed = 8.19

[[record]]
molecule = "COc1cc(Cl)c(-n2cnc(N)c(C(=O)Nc3cncc([C@@H]4C[C@@H](C)N4)c3)c2=O)c(Cl)c1 (single isomer, unassigned) [Example 214]"
assay_readout = "pIC50"
value_observed = 7.76


Value sought for every listed molecule: pIC50.
1. Nc1ncn(-c2c(Cl)cc(C(F)F)cc2Cl)c(=O)c1C(=O)Nc1cncc([C@@H]2CCCN2)c1 [Example 55]
2. Nc1ncn(-c2c(Cl)cc(OC(F)F)cc2Cl)c(=O)c1C(=O)Nc1cncc([C@@H]2CCCCN2)c1 [Example 46]
3. CCOc1cc(C)c(-n2cnc(N)c(C(=O)Nc3cncc([C@H]4CCCCN4)c3)c2=O)c(C)c1 [Example 91]

Outgoing:
[8.04, 7.98, 8.22]
